# measured.on: PDE2A (NM002599) (Homo sapiens, UniProt O00408)
# Construct: made in house; host or cells: baculovirus / SF21 insect cells
# Sequence (O00408 whole entry): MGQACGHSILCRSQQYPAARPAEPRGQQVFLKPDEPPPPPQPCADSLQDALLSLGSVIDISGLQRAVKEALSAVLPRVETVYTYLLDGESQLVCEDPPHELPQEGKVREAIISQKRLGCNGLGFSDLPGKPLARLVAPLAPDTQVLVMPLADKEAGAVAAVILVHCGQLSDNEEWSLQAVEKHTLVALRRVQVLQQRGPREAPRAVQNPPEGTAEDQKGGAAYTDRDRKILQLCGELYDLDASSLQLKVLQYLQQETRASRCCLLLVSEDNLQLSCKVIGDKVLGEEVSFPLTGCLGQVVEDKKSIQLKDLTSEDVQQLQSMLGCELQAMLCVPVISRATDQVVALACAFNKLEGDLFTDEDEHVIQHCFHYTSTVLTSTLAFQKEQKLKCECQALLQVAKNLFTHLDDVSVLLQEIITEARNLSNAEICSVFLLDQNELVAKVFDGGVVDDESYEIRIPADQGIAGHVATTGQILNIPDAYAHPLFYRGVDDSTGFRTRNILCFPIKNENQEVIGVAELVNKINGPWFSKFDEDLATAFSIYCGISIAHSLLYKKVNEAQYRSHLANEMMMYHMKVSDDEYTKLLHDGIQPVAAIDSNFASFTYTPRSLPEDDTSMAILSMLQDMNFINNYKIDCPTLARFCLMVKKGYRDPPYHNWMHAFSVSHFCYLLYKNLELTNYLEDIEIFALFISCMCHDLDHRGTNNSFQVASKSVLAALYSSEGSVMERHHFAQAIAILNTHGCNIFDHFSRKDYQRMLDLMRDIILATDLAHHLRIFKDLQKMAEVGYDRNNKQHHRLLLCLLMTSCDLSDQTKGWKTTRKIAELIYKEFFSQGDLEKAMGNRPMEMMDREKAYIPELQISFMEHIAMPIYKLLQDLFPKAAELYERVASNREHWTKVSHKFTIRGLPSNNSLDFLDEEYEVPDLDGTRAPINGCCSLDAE
# method.notes: Inhibition of recombinant PDE2A (expressed in baculovirus/SF21-cells)
# Assay type: biochemical
# condition.details: recombinant PDE2A, 0.5 μM [3H]-cAMP, 1000 nM cGMP, 37° C., 30 minutes, SPA; read-out: PDE2A IC50
Field: class. Source value: IC50. Ranges: bucket 1: < 0.05 µM; bucket 2: ≥ 0.05 µM and < 0.4 µM; bucket 3: ≥ 0.4 µM

Here are 6 molecules together with their reported answers.
sample.smiles: COc1ccc2nnc3c(C)nc(-c4ccncc4)n3c2n1
classification: bucket 3
//
sample.smiles: COc1cc(OC)cc(-c2nc(C)c3nnc4ccc(OC)nc4n23)c1
classification: bucket 2
//
sample.smiles: COc1ccnc2c1nnc1c(C)nc(-c3cnccc3C)n12
classification: bucket 3
//
sample.smiles: COc1ccc2nnc3c(C)nc(-c4cnc(F)c(C)c4)n3c2n1
classification: bucket 2
//
sample.smiles: CCOc1cc(F)cc(-c2nc(C)c3nnc4ccc(OC)nc4n23)c1
classification: bucket 2
//
sample.smiles: COc1ccc2nnc3c(C)nc(-c4ccccc4Cl)n3c2n1
classification: bucket 1

Would you mind sorting `COc1cncc(-c2nc(C)c3nnc4ccc(OC)nc4n23)c1` into the appropriate category?
bucket 1

Would you mind sorting `COc1ccc2nnc3c(C)nc(-c4cc(Cl)ccc4C)n3c2n1` into the appropriate category?
bucket 1

---

# measured.on: PDE2A (NM002599) (Homo sapiens)
# Construct: made in house; host or cells: baculovirus / SF21 insect cells
# method.notes: Inhibition of recombinant PDE2A (expressed in baculovirus/SF21-cells)
# Assay type: biochemical
# Method: PDE2A (NM002599) was cloned and the gene was inserted in the baculovirus and the enzyme-protein expressed in SF21-cells. The enzyme was isolated from these cells by harvesting the cells by an centrifugation at 200 g to collect the cells. […] PDE2A activity was determined in a one step procedure in microtiterplates. […] One hour later the mixture was measured in a liquid scintillation counter for microtiterplates (Microbeta Trilux). […]
quantity.measured: IC50 (nM)
Numeric only. Scale: nM

IC50 for `COc1ccc2nnc3c(C)nc(-c4ccc5[nH]ccc5c4)n3c2n1` is 186

---

# measured.on: PDE2A (NM002599) (Homo sapiens, UniProt O00408)
# Construct: made in house; host or cells: baculovirus / SF21 insect cells
# method.notes: Inhibition of recombinant PDE2A (expressed in baculovirus/SF21-cells)
# Assay type: biochemical
# condition.details: recombinant PDE2A, 0.5 μM [3H]-cAMP, 1000 nM cGMP, 37° C., 30 minutes, SPA; read-out: PDE2A IC50
pIC50: −log10 of the molar value.
Threshold rule: pIC50 greater than or equal to 7 is YES; below that, NO.

// inclusive: pIC50 at least 7? input: `Cc1nc(-c2ccccc2Cl)n2c1nnc1ccc(N3CCOCC3)nc12`
YES

// inclusive: pIC50 at least 7? input: `CCc1ncc2nnc3ccc(OC)nc3n12`
NO

// inclusive: pIC50 at least 7? input: `COc1ccc(F)c(-c2nc(C)c3nnc4ccc(OC)nc4n23)c1`
YES

---

# measured.on: PDE10A1 (AB 020593) (Homo sapiens, UniProt Q9Y233)
# Construct: made in house; host or cells: baculovirus / SF21 insect cells (gene synthesized by Entelechon GmbH)
# Sequence (Q9Y233 other isoform, or with tags, fused parts or gaps): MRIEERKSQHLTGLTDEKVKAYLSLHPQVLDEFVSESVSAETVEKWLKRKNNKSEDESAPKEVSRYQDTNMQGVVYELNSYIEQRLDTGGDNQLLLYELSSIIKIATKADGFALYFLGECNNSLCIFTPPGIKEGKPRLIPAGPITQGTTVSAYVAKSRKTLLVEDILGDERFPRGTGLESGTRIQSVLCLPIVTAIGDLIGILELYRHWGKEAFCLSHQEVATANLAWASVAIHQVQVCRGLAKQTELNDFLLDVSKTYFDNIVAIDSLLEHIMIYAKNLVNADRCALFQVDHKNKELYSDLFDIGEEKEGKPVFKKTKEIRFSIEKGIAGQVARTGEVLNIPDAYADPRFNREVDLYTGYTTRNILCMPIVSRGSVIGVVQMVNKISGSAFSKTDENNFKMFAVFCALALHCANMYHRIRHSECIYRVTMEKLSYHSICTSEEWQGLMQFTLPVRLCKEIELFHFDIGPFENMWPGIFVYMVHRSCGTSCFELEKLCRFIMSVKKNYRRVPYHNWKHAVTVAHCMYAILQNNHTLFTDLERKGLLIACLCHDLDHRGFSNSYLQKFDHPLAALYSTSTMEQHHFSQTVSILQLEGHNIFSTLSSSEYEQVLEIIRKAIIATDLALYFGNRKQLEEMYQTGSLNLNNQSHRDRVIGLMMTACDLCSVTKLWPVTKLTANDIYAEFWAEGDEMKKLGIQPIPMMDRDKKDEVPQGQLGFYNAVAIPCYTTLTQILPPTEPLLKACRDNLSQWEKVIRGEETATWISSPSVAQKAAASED
# method.notes: Inhibition of recombinant PDE10A (baculovirus/SF21 system)
# Format: biochemical
# condition.details: recombinant cytosolic PDE10A, 0.1 μM [3H]-cAMP, 37° C., 30 minutes, SPA; read-out: PDE10A IC50
# Protocol: The DNA of PDE10A1 (AB 020593, 2340 bp) was synthesized and cloned into the vector pCR4.TOPO (Entelechon GmbH, Regensburg, Germany). The gene was than inserted into a baculovirus vector, ligated with the baculovirus DNA. […] PDE activity was determined in a one step procedure in microtiter plates. […] Non-specific enzyme activity was determined without the enzyme. […] One h later the mixture was measured in a liquid scintillation counter for microtiter plates (Microbeta Trilux). […]
quantity.measured: log10 IC50 (log10 of the value in nM)
Response schema: value (number) is log10 of IC50 in units of nM.

Observe how each entry below is paired with its result.
compound: COc1ccc2nnc3c(C)nc(-c4cc(C(F)(F)F)ccc4Cl)n3c2n1 [Example 72]
number: 2.45
//
compound: CCc1cccc(-c2nc(C)c3nnc4ccc(OC)nc4n23)c1 [Example 17]
number: 2.21
//
compound: COc1ccc2nnc3c(C)nc(-c4cc(Cl)ccc4C(F)(F)F)n3c2n1 [Example 99]
number: 2.86
//
compound: CCOc1cccc(-c2nc(C)c3nnc4ccc(OC)nc4n23)c1 [Example 36]
number: 2.48
//
compound: COc1cncc(-c2nc(C)c3nnc4ccc(OC)nc4n23)c1 [Example 40]
number: 1.96
//
compound: COc1ccc2nnc3c(C)nc(-c4ccc(F)c(Cl)c4)n3c2n1 [Example 96]
number: 2.33
//
compound: COc1ccc2nnc3c(C)nc(-c4cccc(Cl)c4Cl)n3c2n1 [Example 90]
number: 1.61
//
compound: COc1ccc2nnc3cnc(C(C)C)n3c2n1 [Example 7]
number: 3.46

log10 IC50 for COc1ccc2nnc3c(C)nc(-c4ccccc4Cl)n3c2n1 [Example 6] is 1.32

log10 IC50 for COc1ccc2nnc3c(C)nc(-c4ccccc4C(N)=O)n3c2n1 [Example 103] is 3.15

log10 IC50 for COc1ccc2nnc3c(C)nc(-c4cc(F)ccc4Cl)n3c2n1 [Example 62] is 1.33

log10 IC50 for COc1ccc2nnc3c(C)nc(-c4ccncc4OC)n3c2n1 [Example 52] is 2.35

log10 IC50 for COc1cc(F)cc(-c2nc(C)c3nnc4ccc(OC)nc4n23)c1 [Example 21] is 1.70

---

# measured.on: PDE10A1 (AB 020593) (Homo sapiens)
# Construct: made in house; host or cells: baculovirus / SF21 insect cells (gene synthesized by Entelechon GmbH)
# method.notes: Inhibition of recombinant PDE10A (baculovirus/SF21 system)
# Format: biochemical
# condition.details: recombinant cytosolic PDE10A, 0.1 μM [3H]-cAMP, 37° C., 30 minutes, SPA; read-out: PDE10A IC50
Label Y when IC50 is strictly below 90 nM; otherwise label N.

Here are 3 compounds together with their reported answers.
sample.smiles: COc1ccc2nnc3c(C)nc(-c4ccc(C)cc4Cl)n3c2n1
classification: Y
--
sample.smiles: COc1ccc2nnc3c(C)nc(-c4cccc(OC)c4OC)n3c2n1
classification: N
--
sample.smiles: COc1ccc2nnc3c(C)ncn3c2n1
classification: N

# next compound below
Quick check: IC50 of `COc1ccc2nnc3c(C)nc(-c4cc(F)ccc4C)n3c2n1` under 90 nM?
Y

---

Below, each entry is listed alongside its reported pIC50.
# measured.on: PDE10A1 (AB 020593) (Homo sapiens, UniProt Q9Y233)
# Construct: made in house; host or cells: baculovirus / SF21 insect cells (gene synthesized by Entelechon GmbH)
# method.notes: Inhibition of recombinant PDE10A (baculovirus/SF21 system)
# Assay type: biochemical
# condition.details: recombinant cytosolic PDE10A, 0.1 μM [3H]-cAMP, 37° C., 30 minutes, SPA; read-out: PDE10A IC50
# pIC50: negative log10 of molar concentration; output just the value

pIC50 for `COc1ccc2nnc3c(C)nc(-c4ccnc(C)c4)n3c2n1` is 6.57

pIC50 for `COc1ccc2nnc3c(C)nc(-c4cc(C#N)ccc4Cl)n3c2n1` is 6.38

pIC50 for `COc1ccc2nnc3c(C)nc(-c4ccc(F)cc4Cl)n3c2n1` is 7.88

pIC50 for `COc1ccc2nnc3c(C)nc(-c4ccc(F)nc4C)n3c2n1` is 6.65

pIC50 for `COc1ccc2nnc3c(C)nc(-c4cc(Cl)ccc4C)n3c2n1` is 6.97

---

# measured.on: PDE2A (NM002599) (Homo sapiens, UniProt O00408)
# Construct: made in house; host or cells: baculovirus / SF21 insect cells
# method.notes: Inhibition of recombinant PDE2A (expressed in baculovirus/SF21-cells)
# Format: biochemical
# condition.details: recombinant PDE2A, 0.5 μM [3H]-cAMP, 1000 nM cGMP, 37° C., 30 minutes, SPA; read-out: PDE2A IC50
quantity.measured: pIC50
# pIC50: negative log10 of molar concentration; output just the value

Observe how each entry below is paired with its result.
compound: COc1ccc2nnc3c(C)nc(-c4cncc(F)c4)n3c2n1 [Example 43]
number: 6.57
--
compound: COc1ccc2nnc3c(C)nc(-c4c(Cl)cccc4OC)n3c2n1 [Example 86]
number: 7.92
--
compound: COc1ccc2nnc3c(C)nc(-c4cc(OC(F)(F)F)ccc4Cl)n3c2n1 [Example 76]
number: 7.97
--
compound: COc1ccc2nnc3c(C)nc(-c4cc(C(F)(F)F)ccc4Cl)n3c2n1 [Example 72]
number: 7.60
--
compound: COc1ccc2nnc3c(C)nc(-c4cc(Cl)cc(Cl)c4)n3c2n1 [Example 97]
number: 6.34

// returns pIC50 for COc1ccc2nnc3c(C)nc(-c4sc(C)nc4C)n3c2n1 [Example 54] with PDE2A (NM002599) (Homo sapiens, UniProt O00408); value = 7.64
